target: UniProt:O75469; test: Activation of PXR (unknown origin)
Sequence (O75469 whole entry): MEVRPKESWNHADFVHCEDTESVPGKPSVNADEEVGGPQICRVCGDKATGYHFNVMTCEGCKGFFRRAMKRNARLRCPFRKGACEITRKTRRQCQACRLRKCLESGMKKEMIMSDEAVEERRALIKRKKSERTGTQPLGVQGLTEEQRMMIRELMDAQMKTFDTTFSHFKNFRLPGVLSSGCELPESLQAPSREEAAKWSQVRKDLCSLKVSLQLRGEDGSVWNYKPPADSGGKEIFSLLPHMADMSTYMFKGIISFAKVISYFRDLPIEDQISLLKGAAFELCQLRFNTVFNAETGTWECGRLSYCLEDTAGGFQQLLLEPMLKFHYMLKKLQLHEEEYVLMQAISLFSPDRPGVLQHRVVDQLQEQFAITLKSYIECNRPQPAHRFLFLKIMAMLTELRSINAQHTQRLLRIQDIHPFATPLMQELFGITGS
PROPERTY LABEL: EC50

The value of EC50 measured for the molecule O=C(CNc1nonc1/C(=N/O)N[C@H]1Cc2ccc(F)cc21)NCCO turned out to be > 30 µM

* * *

Task for the reader: assign each of the following compounds its reported MRT.
experiment: MRT in rat; assay type: ADME; settings: in vivo
Answers are plain numbers, in h.

ITEM SMILES: Nc1nonc1/C(=N/O)N[C@H]1Cc2ccc(F)cc21
MRT, h: 0.4
--
ITEM SMILES: CC(=O)NCCSc1nonc1/C(=N/O)N[C@H]1Cc2ccc(F)cc21
MRT, h: 1
--
ITEM SMILES: NC(=O)CNc1nonc1/C(=N/O)N[C@H]1Cc2ccc(F)cc21
MRT, h: 1.7
--
ITEM SMILES: NS(=O)(=O)NCCSc1nonc1/C(=N/O)N[C@H]1Cc2ccc(F)cc21
MRT, h: 2.5
--
ITEM SMILES: NS(=O)(=O)NCCNc1nonc1/C(=N/O)N[C@H]1Cc2ccc(F)cc21
MRT, h: 2

Lab note: each compound below needs its MRT filled in.
1. O=C(CSc1nonc1/C(=N/O)N[C@H]1Cc2ccc(F)cc21)NCCO
2. O=C(CNc1nonc1/C(=N/O)N[C@H]1Cc2ccc(F)cc21)NCCO
3. CC(=O)NCCNc1nonc1/C(=N/O)N[C@H]1Cc2ccc(F)cc21

stdout:
0.8
2.9
0.4
